B1: library; a variant is named by its letters at N, in order (parent)
chain: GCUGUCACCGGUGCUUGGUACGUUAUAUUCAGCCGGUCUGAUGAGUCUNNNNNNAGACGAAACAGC

Variants of: B1
Experiment: normalized RNA/DNA level with ligand (relative to sTRSVctl = 100) (log10 (% of sTRSVctl)); HEK293T overexpressing SLC46A1; ligand concentration (+) RNA-Seq: 6 mM; higher = less ribozyme self-cleavage, higher mRNA level
Settings: with (6R,S)-folinic acid; ligand present: yes
Recorded normalized RNA/DNA level with ligand (log10) by entry
# print the numeric value only

Consider the reported normalized RNA/DNA level with ligand (log10) for these variants:
>>> assay_result("GCUGUCACCGGUGCUUGGUACGUUAUAUUCAGCCGGUCUGAUGAGUCUACCGAGAGACGAAACAGC")
2.01
>>> assay_result("GCUGUCACCGGUGCUUGGUACGUUAUAUUCAGCCGGUCUGAUGAGUCUUUUAAAAGACGAAACAGC")
1.97
>>> assay_result("GCUGUCACCGGUGCUUGGUACGUUAUAUUCAGCCGGUCUGAUGAGUCUAUGGUGAGACGAAACAGC")
2.01
>>> assay_result("GCUGUCACCGGUGCUUGGUACGUUAUAUUCAGCCGGUCUGAUGAGUCUAAAACUAGACGAAACAGC")
2.03
>>> assay_result("GCUGUCACCGGUGCUUGGUACGUUAUAUUCAGCCGGUCUGAUGAGUCUCCAUAGAGACGAAACAGC")
1.99

For the variant shown here, GCUGUCACCGGUGCUUGGUACGUUAUAUUCAGCCGGUCUGAUGAGUCUCACCUCAGACGAAACAGC , give the reported normalized RNA/DNA level with ligand (log10).
1.99

For the variant shown here, GCUGUCACCGGUGCUUGGUACGUUAUAUUCAGCCGGUCUGAUGAGUCUGACUUUAGACGAAACAGC , give the reported normalized RNA/DNA level with ligand (log10).
1.97

For the variant shown here, GCUGUCACCGGUGCUUGGUACGUUAUAUUCAGCCGGUCUGAUGAGUCUUUUCCGAGACGAAACAGC , give the reported normalized RNA/DNA level with ligand (log10).
1.99
